target: human ether-à-go-go-related gene (hERG) potassium channel (human, UniProt Q12809); assay: primary screen, population patch clamp on CHO cells stably expressing hERG; higher = less effect of the substance;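 note: peak tail current of the secondary pulse compared with the same well before compound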
Sequence (Q12809 whole entry, looked up): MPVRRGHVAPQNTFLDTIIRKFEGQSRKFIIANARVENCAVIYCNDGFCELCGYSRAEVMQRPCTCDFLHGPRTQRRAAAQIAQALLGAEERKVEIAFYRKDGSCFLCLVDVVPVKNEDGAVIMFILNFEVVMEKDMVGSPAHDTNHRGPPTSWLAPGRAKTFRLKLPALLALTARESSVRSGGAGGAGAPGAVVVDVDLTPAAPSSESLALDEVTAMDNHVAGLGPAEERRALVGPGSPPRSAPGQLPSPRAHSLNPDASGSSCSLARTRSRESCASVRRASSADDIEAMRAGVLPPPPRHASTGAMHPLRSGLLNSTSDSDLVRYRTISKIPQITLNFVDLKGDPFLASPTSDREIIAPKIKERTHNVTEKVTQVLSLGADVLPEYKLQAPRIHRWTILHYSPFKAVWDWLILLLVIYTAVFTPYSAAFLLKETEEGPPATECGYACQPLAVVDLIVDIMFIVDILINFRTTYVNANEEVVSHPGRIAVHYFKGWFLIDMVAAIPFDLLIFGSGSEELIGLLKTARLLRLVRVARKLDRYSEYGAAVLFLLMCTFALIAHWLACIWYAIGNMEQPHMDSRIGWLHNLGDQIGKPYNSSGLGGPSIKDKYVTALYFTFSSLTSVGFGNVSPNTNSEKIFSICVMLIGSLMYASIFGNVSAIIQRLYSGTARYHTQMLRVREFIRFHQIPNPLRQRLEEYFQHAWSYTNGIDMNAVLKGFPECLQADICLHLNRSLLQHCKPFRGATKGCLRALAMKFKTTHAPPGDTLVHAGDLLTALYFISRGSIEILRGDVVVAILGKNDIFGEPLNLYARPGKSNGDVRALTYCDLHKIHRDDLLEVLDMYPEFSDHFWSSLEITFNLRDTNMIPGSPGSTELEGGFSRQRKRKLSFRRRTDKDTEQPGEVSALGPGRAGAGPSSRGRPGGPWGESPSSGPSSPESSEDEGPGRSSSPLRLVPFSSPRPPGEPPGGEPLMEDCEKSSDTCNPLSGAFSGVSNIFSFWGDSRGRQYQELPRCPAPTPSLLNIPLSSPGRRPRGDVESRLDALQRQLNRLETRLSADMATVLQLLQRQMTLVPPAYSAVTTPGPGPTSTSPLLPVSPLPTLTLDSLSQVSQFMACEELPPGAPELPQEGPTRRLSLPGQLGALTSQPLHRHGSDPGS
About 14,000 (4.5%) of roughly 310,000 compounds showed an effect of 50% or more. The effect is printed as a negative number. The entries come from a sample that favours strong results as a whole.
MEASUREMENT_TYPE: hERG current change (%, negative = inhibition) at 10uM (%)
Provide only the numeric value, understood in %.

hERG current change (%, negative = inhibition) at 10uM lookup needed for CC1CN(CC(=O)NC(C)c2ccccc2)CC(C)O1 (centres unmarked) , thanks.
9.23

// same read-out, input: "Cc1c(CCOC(=O)c2cc([N+](=O)[O-])cc([N+](=O)[O-])c2)sc[n+]1CC(=O)c1ccc(Br)cc1.[Br-]"
-40.7

Same thing, different compound: "Cc1sc[n+](CC(=O)c2ccc(Br)cc2)c1C.[Br-]"
-12.7

Also need "Cc1c(CCOC(=O)c2ccc([N+](=O)[O-])cc2)sc[n+]1CC(=O)c1ccccc1.[Br-]" , thanks.
-63.7

Same again, this time with CSc1ccccc1NC(=O)CN1CCCCC1C (centres unmarked)
0.324
